# Tested on: SK-UT-1 (Other Solid Carcinomas)
# experiment: Bliss excess, mean over the matrix (fraction); higher = more synergy
Mark satisfied for reported Bliss excess of -0.02 or greater; mark not satisfied for anything smaller.

Recorded results for 5 molecules are shown here.
molecule	test system	assigned label
COc1cccc(OCCCN)c1-c1cc(Nc2cnc(C#N)cn2)n[nH]1 [Prexasertib] + O=C(c1cc(Cc2n[nH]c(=O)c3ccccc23)ccc1F)N1CCN(C(=O)C2CC2)CC1 [Olaparib] (first compound max 1 µM, 7x7, partner max 10 µM)	SK-UT-1 (Other Solid Carcinomas)	not satisfied
CS(=O)(=O)CCNCc1ccc(-c2ccc3ncnc(Nc4ccc(OCc5cccc(F)c5)c(Cl)c4)c3c2)o1 [Lapatinib] + C[C@@H](Oc1cc(-c2cnn(C3CCNCC3)c2)cnc1N)c1c(Cl)ccc(F)c1Cl [Crizotinib] (first compound max 10 µM, 7x7, partner max 10 µM)	SK-UT-1 (Other Solid Carcinomas)	not satisfied
C[C@@H]1COCCN1c1cc(C2([S@](C)(=N)=O)CC2)nc(-c2ccnc3[nH]ccc23)n1 [AZD6738] + O=C(c1cc(Cc2n[nH]c(=O)c3ccccc23)ccc1F)N1CCN(C(=O)C2CC2)CC1 [Olaparib] (first compound max 10 µM, 7x7, partner max 10 µM)	SK-UT-1 (Other Solid Carcinomas)	satisfied
COc1cc2ncnc(Nc3ccc(F)c(Cl)c3)c2cc1OCCCN1CCOCC1 [Gefitinib] + CC(C)n1c(=O)n(C)c2cnc3cc(F)c(-c4ccc(OCCCN5CCCCC5)nc4)cc3c21 [AZD1390] (first compound max 10 µM, 7x7, partner max 0.3 µM)	SK-UT-1 (Other Solid Carcinomas)	not satisfied
COc1cccc(OCCCN)c1-c1cc(Nc2cnc(C#N)cn2)n[nH]1 [Prexasertib] + Cc1cc2ncnn2cc1Nc1ncc2c(n1)n(C1CCOCC1)c(=O)n2C [AZD7648] (first compound max 1 µM, 7x7, partner max 10 µM)	SK-UT-1 (Other Solid Carcinomas)	not satisfied

Ask | Reported Bliss excess reaches at least -0.02 for Cc1c2c(nn1C)CSCc1cc(n(C)n1)CSc1cc(c3ccccc3c1)OCCCc1c(C(=O)O)n(C)c3c-2c(Cl)ccc13 [AZD5991] + C[C@@H](Nc1cc(F)cc(F)c1)c1cc(C(=O)N(C)C)cc2c(=O)cc(N3CCOCC3)oc12 [AZD8186] (first compound max 1 µM, 7x7, partner max 3 µM) ?
Reply | satisfied

Ask | Given the entry CN(CCO)CC[C@H](CSc1ccccc1)Nc1ccc(S(=O)(=O)NC(=O)c2ccc(N3CCC([C@@H](O)c4ccccc4-c4ccc(Cl)cc4)CC3)cc2)cc1S(=O)(=O)C(F)(F)F [AZD4320] + CCN(CCO)CCCOc1ccc2c(Nc3cc(CC(=O)Nc4cccc(F)c4)[nH]n3)ncnc2c1 [AZD2811] (first compound max 1 µM, 7x7, partner max 1 µM) , answer whether its Bliss excess meets or surpasses -0.02.
Reply | satisfied

Ask | Assess whether reported Bliss excess for NC1(C(=O)N[C@@H](CCO)c2ccc(Cl)cc2)CCN(c2ncnc3[nH]ccc23)CC1 [Capivasertib] + CC(C)n1c(=O)n(C)c2cnc3cc(F)c(-c4ccc(OCCCN5CCCCC5)nc4)cc3c21 [AZD1390] (first compound max 10 µM, 7x7, partner max 0.3 µM) sits at -0.02 or higher.
Reply | satisfied

* * *

# Tested on: SNU-61 (Colorectal Carcinoma)
# experiment: Bliss excess, mean over the matrix (fraction); higher = more synergy
Reported Bliss excess values are given for each entry in this list.
Keep the answer to the number alone.

compound	measured
Cc1cc2ncnn2cc1Nc1ncc2c(n1)n(C1CCOCC1)c(=O)n2C [AZD7648] + CN(C)CCCOc1ccc(-c2ccc3ncc4c(c3c2)n(C2CCOCC2)c(=O)n4C)cn1 [AZD0156] (first compound max 10 µM, 7x7, partner max 1 µM)	-0.0151

Ask | Name the recorded Bliss excess for CN(CCO)CC[C@H](CSc1ccccc1)Nc1ccc(S(=O)(=O)NC(=O)c2ccc(N3CCC([C@@H](O)c4ccccc4-c4ccc(Cl)cc4)CC3)cc2)cc1S(=O)(=O)C(F)(F)F [AZD4320] + Cn1cnc2c(F)c(Nc3ccc(Br)cc3Cl)c(C(=O)NOCCO)cc21 [Selumetinib] (first compound max 1 µM, 7x7, partner max 3 µM) .
Reply | 0.0604

Ask | Quick one: Bliss excess of Cc1c2c(nn1C)CSCc1cc(n(C)n1)CSc1cc(c3ccccc3c1)OCCCc1c(C(=O)O)n(C)c3c-2c(Cl)ccc13 [AZD5991] + Cn1cnc2c(F)c(Nc3ccc(Br)cc3Cl)c(C(=O)NOCCO)cc21 [Selumetinib] (first compound max 1 µM, 7x7, partner max 3 µM) ?
Reply | -0.0079

* * *

# Tested on: SNG-M (Endometrial Carcinoma)
# experiment: combination Emax (second highest fraction inhibited in the dose matrix, 72 h); higher = more inhibition; extreme values may be limits of the assay
readout type: combination Emax
A bare number is all that is needed in reply.

compound	readout type	measured
C[C@@H](Nc1cc(F)cc(F)c1)c1cc(C(=O)N(C)C)cc2c(=O)cc(N3CCOCC3)oc12 [AZD8186] + C1CN(CCC1(C(=O)N[C@@H](CCO)C2=CC=C(C=C2)Cl)N)C3=NC=NC4=C3C=CN4 [AZD5363] (first compound max 10 µM, 7x7, partner max 10 µM)	combination Emax	0.429

Ask | Requested field: combination Emax. Item: NC1(C(=O)N[C@@H](CCO)c2ccc(Cl)cc2)CCN(c2ncnc3[nH]ccc23)CC1 [Capivasertib] + C[C@@H]1COCCN1C2=NC(=NC(=C2)C3(CC3)[S@](=N)(=O)C)C4=C5C=CNC5=NC=C4 [AZD6738] (first compound max 10 µM, 7x7, partner max 10 µM)
Reply | 0.888

Ask | For COc1cccc(OCCCN)c1-c1cc(Nc2cnc(C#N)cn2)n[nH]1 [Prexasertib] + CN(C)CCCOc1ccc(-c2ccc3ncc4c(c3c2)n(C2CCOCC2)c(=O)n4C)cn1 [AZD0156] (first compound max 1 µM, 7x7, partner max 1 µM) , what is its reported combination Emax?
Reply | 0.99

Ask | Please give the measured combination Emax for this compound: Cc1nc(-c2cn3c(n2)-c2ccc(-c4cnn(C(C)(C)C(N)=O)c4)cc2OCC3)n(C(C)C)n1 [Taselisib] + O=C(Nc1ccc2[nH]nc(-c3ccncc3)c2c1)[C@@H]1CCN(CC(=O)N2CCN(c3ccc(-c4ncccn4)cc3)CC2)C1 [SCH772984] (first compound max 10 µM, 7x7, partner max 5 µM)
Reply | 0.76

Ask | Which combination Emax value is on record for O=C(c1cc(Cc2n[nH]c(=O)c3ccccc23)ccc1F)N1CCN(C(=O)C2CC2)CC1 [Olaparib] + CN(CC[C@H](CSC1=CC=CC=C1)NC2=C(C=C(C=C2)S(=O)(=O)NC(=O)C3=CC=C(C=C3)N4CCC(CC4)[C@H](C5=CC=CC=C5C6=CC=C(C=C6)Cl)O)S(=O)(=O)C(F)(F)F)CCO [AZD4320] (first compound max 10 µM, 7x7, partner max 1 µM) ?
Reply | 0.401

Ask | Return reported combination Emax; argument: COc1nnc2ccc(N3CCC(c4ccc(OCCN5CCN(C)C(=O)[C@H]5C)cc4)CC3)nn12 [AZD5153] + CC1(C)CCC(CN2CCN(c3ccc(C(=O)NS(=O)(=O)c4ccc(NCC5CCOCC5)c([N+](=O)[O-])c4)c(Oc4cnc5[nH]ccc5c4)c3)CC2)=C(c2ccc(Cl)cc2)C1 [Venetoclax] (first compound max 1 µM, 7x7, partner max 1 µM)
Reply | 0.548

Ask | Which combination Emax is reported for this compound? CN(CCO)CC[C@H](CSc1ccccc1)Nc1ccc(S(=O)(=O)NC(=O)c2ccc(N3CCC([C@@H](O)c4ccccc4-c4ccc(Cl)cc4)CC3)cc2)cc1S(=O)(=O)C(F)(F)F [AZD4320] + C[C@@H]1COCCN1C2=NC(=NC(=C2)C3(CC3)[S@](=N)(=O)C)C4=C5C=CNC5=NC=C4 [AZD6738] (first compound max 1 µM, 7x7, partner max 10 µM)
Reply | 0.973

Ask | Reported combination Emax for COc1nnc2ccc(N3CCC(c4ccc(OCCN5CCN(C)C(=O)[C@H]5C)cc4)CC3)nn12 [AZD5153] + Cn1cnc2c(F)c(Nc3ccc(Br)cc3Cl)c(C(=O)NOCCO)cc21 [Selumetinib] (first compound max 1 µM, 7x7, partner max 10 µM) : what is it?
Reply | 0.632

Ask | What value of combination Emax has been recorded for this entry: Cn1cnc2c(F)c(Nc3ccc(Br)cc3Cl)c(C(=O)NOCCO)cc21 [Selumetinib] + CCN(CCO)CCCOc1ccc2c(Nc3cc(CC(=O)Nc4cccc(F)c4)[nH]n3)ncnc2c1 [AZD2811] (first compound max 10 µM, 7x7, partner max 1 µM)
Reply | 0.261

* * *

# Tested on: EKVX (Non-Small Cell Lung Carcinoma)
# experiment: combination Emax (second highest fraction inhibited in the dose matrix, 72 h); higher = more inhibition; extreme values may be limits of the assay
readout type: combination Emax
// return a plain number; no unit text

molecule	test system	combination Emax
C=CCn1c(=O)c2cnc(Nc3ccc(N4CCN(C)CC4)cc3)nc2n1-c1cccc(C(C)(C)O)n1 [AZD1775] + C[C@@H]1COCCN1C2=NC(=NC(=C2)C3(CC3)[S@](=N)(=O)C)C4=C5C=CNC5=NC=C4 [AZD6738] (first compound max 1 µM, partner max 10 µM)	EKVX (Non-Small Cell Lung Carcinoma)	0.327

Ask | For CN(CCO)CC[C@H](CSc1ccccc1)Nc1ccc(S(=O)(=O)NC(=O)c2ccc(N3CCC([C@@H](O)c4ccccc4-c4ccc(Cl)cc4)CC3)cc2)cc1S(=O)(=O)C(F)(F)F [AZD4320] + C[C@@H](Nc1cc(F)cc(F)c1)c1cc(C(=O)N(C)C)cc2c(=O)cc(N3CCOCC3)oc12 [AZD8186] (first compound max 1 µM, 7x7, partner max 3 µM) , what is its reported combination Emax?
Reply | 0.308

Ask | Value lookup for combination Emax; key = CN(CCO)CC[C@H](CSc1ccccc1)Nc1ccc(S(=O)(=O)NC(=O)c2ccc(N3CCC([C@@H](O)c4ccccc4-c4ccc(Cl)cc4)CC3)cc2)cc1S(=O)(=O)C(F)(F)F [AZD4320] + C[C@@H]1COCCN1C2=NC(=NC(=C2)C3(CC3)[S@](=N)(=O)C)C4=C5C=CNC5=NC=C4 [AZD6738] (first compound max 1 µM, 7x7, partner max 10 µM)
Reply | 0.252

Ask | Value lookup for combination Emax; key = Cc1c2c(nn1C)CSCc1cc(n(C)n1)CSc1cc(c3ccccc3c1)OCCCc1c(C(=O)O)n(C)c3c-2c(Cl)ccc13 [AZD5991] + CC1(C)CCC(CN2CCN(c3ccc(C(=O)NS(=O)(=O)c4ccc(NCC5CCOCC5)c([N+](=O)[O-])c4)c(Oc4cnc5[nH]ccc5c4)c3)CC2)=C(c2ccc(Cl)cc2)C1 [Venetoclax] (first compound max 1 µM, 7x7, partner max 1 µM)
Reply | 0.138
